Sourced from patent US12209135B2

system: cynomolgus CD45 ectodomain; assay: Biolayer interferometry (BLI, Octet) binding of immobilized IgG to purified CD45 ectodomain; details: Table 2, Cynomolgus CD45
Sequence (as listed by the source): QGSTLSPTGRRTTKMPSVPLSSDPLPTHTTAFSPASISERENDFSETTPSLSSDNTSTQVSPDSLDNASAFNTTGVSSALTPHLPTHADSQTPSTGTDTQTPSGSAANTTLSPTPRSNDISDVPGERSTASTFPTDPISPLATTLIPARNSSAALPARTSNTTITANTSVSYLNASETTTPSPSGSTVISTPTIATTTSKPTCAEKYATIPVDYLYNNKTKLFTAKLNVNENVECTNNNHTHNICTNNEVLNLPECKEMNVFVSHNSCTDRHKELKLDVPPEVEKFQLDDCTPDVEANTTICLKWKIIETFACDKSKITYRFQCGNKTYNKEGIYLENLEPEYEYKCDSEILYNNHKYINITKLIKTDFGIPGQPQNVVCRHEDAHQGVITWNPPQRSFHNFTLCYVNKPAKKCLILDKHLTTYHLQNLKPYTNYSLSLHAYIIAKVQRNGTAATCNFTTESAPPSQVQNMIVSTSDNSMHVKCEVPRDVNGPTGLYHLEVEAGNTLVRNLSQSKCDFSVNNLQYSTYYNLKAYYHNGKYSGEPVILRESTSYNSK
# Kon values compiled below

# MOLECULE, Kon, M⁻¹ s⁻¹
measured = [
    ("Ab3: affinity matured human anti-CD45 IgG derived from Ab1; VH SEQ ID NO:21, VL SEQ ID NO:25 (antibody, V domains shown) VH: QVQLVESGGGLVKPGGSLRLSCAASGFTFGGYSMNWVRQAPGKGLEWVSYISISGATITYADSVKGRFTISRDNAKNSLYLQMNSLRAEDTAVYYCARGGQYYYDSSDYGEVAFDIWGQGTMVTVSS VL: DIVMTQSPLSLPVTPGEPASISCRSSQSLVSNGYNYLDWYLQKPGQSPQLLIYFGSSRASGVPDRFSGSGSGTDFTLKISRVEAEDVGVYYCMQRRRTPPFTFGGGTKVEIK", 120000),
    ("Ab2: affinity matured human anti-CD45 IgG derived from Ab1; VH SEQ ID NO:11, VL SEQ ID NO:15 (antibody, V domains shown) VH: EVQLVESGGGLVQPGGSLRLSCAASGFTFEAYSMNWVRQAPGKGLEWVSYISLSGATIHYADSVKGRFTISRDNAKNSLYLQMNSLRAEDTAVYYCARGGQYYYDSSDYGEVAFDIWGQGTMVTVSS VL: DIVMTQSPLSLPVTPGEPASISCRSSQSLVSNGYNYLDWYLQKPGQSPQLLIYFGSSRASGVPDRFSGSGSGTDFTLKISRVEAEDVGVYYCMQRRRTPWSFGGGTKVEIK", 119000),
    ("Ab5: variant of Ab4 with asparagine to serine substitution in CDR-L1; VH SEQ ID NO:41, VL SEQ ID NO:45 (antibody, V domains shown) VH: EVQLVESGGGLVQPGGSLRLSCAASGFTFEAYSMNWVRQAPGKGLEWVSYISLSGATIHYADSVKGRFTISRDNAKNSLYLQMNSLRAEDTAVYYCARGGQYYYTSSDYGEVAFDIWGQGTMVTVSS VL: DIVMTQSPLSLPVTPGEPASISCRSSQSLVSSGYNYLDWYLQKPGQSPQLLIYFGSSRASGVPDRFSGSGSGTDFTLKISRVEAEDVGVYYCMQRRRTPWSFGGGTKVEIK", 117000),
    ("Ab4: affinity matured human anti-CD45 IgG derived from Ab1; VH SEQ ID NO:31, VL SEQ ID NO:35 (antibody, V domains shown) VH: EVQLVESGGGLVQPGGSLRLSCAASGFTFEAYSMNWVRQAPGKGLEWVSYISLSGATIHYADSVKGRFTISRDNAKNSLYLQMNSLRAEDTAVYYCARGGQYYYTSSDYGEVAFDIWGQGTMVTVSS VL: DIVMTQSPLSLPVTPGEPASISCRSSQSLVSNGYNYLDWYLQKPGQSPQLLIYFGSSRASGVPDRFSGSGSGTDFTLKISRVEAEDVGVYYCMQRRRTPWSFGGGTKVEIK", 110000),
]
